B1: STX11 (parent)
chain: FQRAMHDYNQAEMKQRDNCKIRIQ

variants of: B1; test: protein stability index of a GFP-peptide fusion (GPS, HEK-293T) (PSI 1-6); higher = more stable; conditions: c terminus: a fixed tail appended;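 further: lentivirally expressed fusions sorted by FACS into six bins by GFP to DsRed ratio, PSI derived from sequencing read proportions per bin multiplied by bin number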
Please enter rule met where protein stability index is greater than or equal to 3, and rule not met where it is lower.

Solved entries (count: 3):
sequence record	label
FQRAMHDYNQAEMKQRDACKIRIQ [N18A]	rule not met
FQRAMHDYNQAEMKPRDNCKIRIQ [Q15P]	rule not met
FQRAMHDYNQAEMKQRDNCKPRIQ [I21P]	rule not met

### Prompt // inclusive: protein stability index at least 3? input: FLRAMHDYNQAEMKQRDNCKIRIQ [Q2L]
### Response rule not met

### Prompt Please check the record FQRAMHDYNQAAMKQRDNCKIRIQ [E12A] and state if its protein stability index is at or above 3.
### Response rule not met

### Prompt Has QQRAMHDYNQAEMKQRDNCKIRIQ [F1Q] a recorded protein stability index greater than or equal to 3?
### Response rule met

### Prompt Is protein stability index for FHRAMHDYNQAEMKQRDNCKIRIQ [Q2H] at or above 3?
### Response rule not met

### Prompt Hi team, for FQRAMHDYNQAEMKQRDNCKIRIC [Q24C] , is the recorded protein stability index at or above 3?
### Response rule not met
